# protocol.description: NCI Yeast Anticancer Drug Screen. Data for the bub3 strain (AID 167)
# study.conditions: S. cerevisiae bub3 mutant strain, at 50.0 µM, stronger effect = higher value
# Description: Growth inhibition of yeast strains with defined genetic alterations is measured as a screen for potential anti-cancer activity. Selected strains with alterations in DNA damage repair or cell cycle control were exposed to compounds and growth inhibition was measured relative to vehicle treated controls. The strain used in this assay is bub3
The panel holds about 79,000 compounds, 15% with a hit somewhere; the sample as a whole holds those more often.
property: growth inhibition (%)
Give the value in % but do not write % after it.

Here are 4 molecules together with their reported answers.
[
  {
    "molecule": "CCN(CC)c1ccc(NC(=S)Nc2cccc(C(F)(F)F)c2)c(C)c1",
    "unit.abbrev": "%",
    "result.number": 2.45
  },
  {
    "molecule": "C=CC1CC[N-]CC1.[Cl][Cu][Cl]",
    "unit.abbrev": "%",
    "result.number": -14.6
  },
  {
    "molecule": "Cc1ccccc1OCC1COCN(Cc2ccccc2)CO1 (stereo not given)",
    "unit.abbrev": "%",
    "result.number": 6.95
  },
  {
    "molecule": "CCOc1c(N=Nc2cccc([N+](=O)[O-])c2)c(C)nn1C(N)=S",
    "unit.abbrev": "%",
    "result.number": -3.35
  }
]

Report growth inhibition for CCn1cc(C(=O)O)c(=O)c2ccc(-c3cn[nH]c3C)nc21
12.2

Report growth inhibition for Cc1cc2c(c(C(=O)NCCC(=O)N[C@@H](C)C(=O)OCc3ccccc3)c1)Oc1c(cc(C)cc1C(=O)NCCC(=O)N[C@@H](C)C(=O)OCc1ccccc1)S2
-9.8

Report growth inhibition for COC(=O)CC1C(=O)OC23CCC1C2(C)CCC1C3CCC2CC(OC(C)=O)CCC21C (stereo not given)
87.5

Report growth inhibition for O=c1c(-c2ccc3c(c2)OCO3)coc2cc(O)ccc12
11.6

Report growth inhibition for C=CC(=O)OCC(C)(C)[N+](=O)[O-]
-3.65

Report growth inhibition for CCCCCCCCCCCCCCCCOCC(COS(C)(=O)=O)OS(C)(=O)=O (stereo not given)
7.9
